- Target: human TRPV4 (Homo sapiens)
- Assay text: Ligand-gated assay (Fluo4 calcium, FLIPR; inhibition of agonist-induced activation)
- Experimental parameters: HEK-293-MSR-II cells transduced with BacMam human TRPV4; agonist at EC80
pIC50: −log10 of the molar value.
In this section we review reported pIC50 values for a set of molecules.
Endpoint: pIC50

>>> df
                                    molecule                      target  endpoint    assay_value
 0  COc1ccncc1N1C[C@@]2(CCC[C@](C)(Cn3cnc4ccc(C#N)cc43)C2)OC1=O [Example 149]  human TRPV4 (Homo sapiens)     pIC50   6.30 to 7.30
 1  CC(C)(CN1C[C@@]2(CCC[C@H](Cn3cnc4ccc(C#N)cc43)C2)OC1=O)c1nc(-c2ccccc2)no1 [Example 75]  human TRPV4 (Homo sapiens)     pIC50  8.00 to 10.00
 2  COc1cc(Cl)ncc1N1C[C@@]2(CCC[C@H](Cn3cnc4ccc(C#N)cc43)C2)OC1=O [Example 123]  human TRPV4 (Homo sapiens)     pIC50  8.00 to 10.00
 3  N#Cc1ccc2ncn(C[C@H]3CCC[C@]4(C3)CN(Cc3cccc(-c5ccccc5)n3)C(=O)O4)c2c1 [Example 64]  human TRPV4 (Homo sapiens)     pIC50  8.00 to 10.00
 4  N#Cc1cc(Cl)cc(-n2cc(CN3C[C@@]4(CCC[C@H](Cn5cnc6ccc(C#N)cc65)C4)OC3=O)nn2)c1 [Example 99]  human TRPV4 (Homo sapiens)     pIC50  8.00 to 10.00
 5  COC(C)(C)c1cnc(N2C[C@@]3(CCC[C@](C)(Cn4cnc5ccc(C#N)cc54)C3)OC2=O)cn1 [Example 162]  human TRPV4 (Homo sapiens)     pIC50  8.00 to 10.00
 6  CC(C)(CN1C[C@@]2(CCC[C@H](Cn3cnc4ccc(C#N)cc43)C2)OC1=O)c1nc(C(F)(F)F)no1 [Example 80]  human TRPV4 (Homo sapiens)     pIC50  8.00 to 10.00
 7  COc1cc(C)c(N2C[C@@]3(CCC[C@H](Cn4cnc5ccc(C#N)cc54)C3)OC2=O)cn1 [Example 111]  human TRPV4 (Homo sapiens)     pIC50   7.30 to 8.00
 8  N#Cc1ccc2ncn(C[C@H]3CCC[C@]4(C3)CN(Cc3cn(-c5ccnc(C(F)(F)F)c5)nn3)C(=O)O4)c2c1 [Example 100]  human TRPV4 (Homo sapiens)     pIC50  8.00 to 10.00
 9  CC(C)(C)c1cnc(N2C[C@@]3(CCC[C@](C)(Cn4cnc5ccc(C#N)cc54)C3)OC2=O)nc1 [Example 49]  human TRPV4 (Homo sapiens)     pIC50  8.00 to 10.00
10  C[C@]1(Cn2cnc3ccc(C#N)cc32)CCC[C@@]2(CN(c3cnccc3C(F)(F)F)C(=O)O2)C1 [Example 144]  human TRPV4 (Homo sapiens)     pIC50  8.00 to 10.00
11  N#Cc1ccc2ncn(C[C@H]3CCC[C@]4(C3)CN(Cc3cn(-c5cccc(F)c5)nn3)C(=O)O4)c2c1 [Example 94]  human TRPV4 (Homo sapiens)     pIC50   7.30 to 8.00
12  N#Cc1ccc2ncn(C[C@H]3CCC[C@]4(C3)CN(Cc3nc(-c5ccccc5)cs3)C(=O)O4)c2c1 [Example 66]  human TRPV4 (Homo sapiens)     pIC50   7.30 to 8.00
13  Cc1ccc(N2C[C@@]3(CCC[C@](C)(Cn4cnc5ccc(C#N)cc54)C3)OC2=O)nc1 [Example 29]  human TRPV4 (Homo sapiens)     pIC50   7.30 to 8.00
14  COC(C)c1noc(C(C)(C)CN2C[C@@]3(CCC[C@H](Cn4cnc5ccc(C#N)cc54)C3)OC2=O)n1 (stereo partly drawn) [Example 154]  human TRPV4 (Homo sapiens)     pIC50  8.00 to 10.00

###

In this section we review reported pIC50 values for a set of compounds.
- Target: human TRPV4 (Homo sapiens, UniProt Q9HBA0)
- Sequence (Q9HBA0 whole entry): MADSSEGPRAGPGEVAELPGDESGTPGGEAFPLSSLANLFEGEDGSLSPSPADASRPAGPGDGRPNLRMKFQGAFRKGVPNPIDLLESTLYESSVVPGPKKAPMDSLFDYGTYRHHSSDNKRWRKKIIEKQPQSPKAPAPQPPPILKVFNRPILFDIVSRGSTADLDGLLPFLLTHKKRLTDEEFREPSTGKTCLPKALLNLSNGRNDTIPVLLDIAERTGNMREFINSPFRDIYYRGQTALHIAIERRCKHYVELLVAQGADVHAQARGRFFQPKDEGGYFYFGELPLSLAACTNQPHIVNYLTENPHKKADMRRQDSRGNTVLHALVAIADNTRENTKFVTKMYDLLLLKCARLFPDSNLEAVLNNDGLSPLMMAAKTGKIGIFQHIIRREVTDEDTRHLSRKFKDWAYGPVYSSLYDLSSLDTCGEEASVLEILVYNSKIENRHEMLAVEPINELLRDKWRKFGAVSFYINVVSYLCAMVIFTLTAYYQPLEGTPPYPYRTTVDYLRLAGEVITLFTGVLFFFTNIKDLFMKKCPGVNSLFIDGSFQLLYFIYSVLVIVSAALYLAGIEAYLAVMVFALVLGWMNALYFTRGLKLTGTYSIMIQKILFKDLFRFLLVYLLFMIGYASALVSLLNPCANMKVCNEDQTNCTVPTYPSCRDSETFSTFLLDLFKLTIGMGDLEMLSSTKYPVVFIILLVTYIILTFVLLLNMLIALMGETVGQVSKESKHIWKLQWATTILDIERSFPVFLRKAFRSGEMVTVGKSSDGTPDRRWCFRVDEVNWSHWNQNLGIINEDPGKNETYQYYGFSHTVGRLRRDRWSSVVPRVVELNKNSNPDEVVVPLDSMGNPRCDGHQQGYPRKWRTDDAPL
- Assay text: Ligand-gated assay (Fluo4 calcium, FLIPR; inhibition of agonist-induced activation)
- Experimental parameters: HEK-293-MSR-II cells transduced with BacMam human TRPV4; agonist at EC80
pIC50: −log10 of the molar value.
Endpoint: pIC50

In [3]: df
Out[3]:
                                    compound  endpoint    assay_value
 0  CC(C)(CO)c1cc(N2C[C@@]3(CCC[C@](C)(Cn4cnc5ccc(C#N)cc54)C3)OC2=O)on1 [Example 21]     pIC50   6.30 to 7.30
 1  CC(C)(O)c1ncc(N2C[C@@]3(CCC[C@](C)(Cn4cnc5ccc(C#N)cc54)C3)OC2=O)cn1 [Example 148]     pIC50   7.30 to 8.00
 2  CC(C)(CN1C[C@@]2(CCC[C@H](Cn3cnc4c(Cl)cc(C#N)cc43)C2)OC1=O)c1nc(-c2ccccc2)no1 [Example 73]     pIC50  8.00 to 10.00
 3  CC(C)OCc1noc(C(C)(C)CN2C[C@@]3(CCC[C@H](Cn4cnc5ccc(C#N)cc54)C3)OC2=O)n1 [Example 83]     pIC50  8.00 to 10.00
 4  N#Cc1ccc2ncn(C[C@H]3CCC[C@]4(C3)CN(Cc3cn(-c5ccccc5)nn3)C(=O)O4)c2c1 [Example 87]     pIC50   7.30 to 8.00
 5  CC(C)(F)c1cc(N2C[C@@]3(CCC[C@](C)(Cn4cnc5ccc(C#N)cc54)C3)OC2=O)on1 [Example 39]     pIC50  8.00 to 10.00
 6  N#Cc1ccc2ncn(C[C@H]3CCC[C@]4(C3)CN(Cc3cn(-c5cc(F)cc(F)c5)nn3)C(=O)O4)c2c1 [Example 101]     pIC50   7.30 to 8.00
 7  N#Cc1ccc2ncn(C[C@H]3CCC[C@]4(C3)CN(Cc3cn(-c5cccc(C(F)(F)F)c5)nn3)C(=O)O4)c2c1 [Example 93]     pIC50  8.00 to 10.00
 8  CC(C)(O)c1cnc(N2C[C@@]3(CCC[C@](C)(Cn4cnc5ccc(C#N)cc54)C3)OC2=O)cn1 [Example 147]     pIC50  8.00 to 10.00
 9  CN(C)c1ncc(N2C[C@@]3(CCC[C@](C)(Cn4cnc5ccc(C#N)cc54)C3)OC2=O)cn1 [Example 145]     pIC50   7.30 to 8.00
10  COc1ccc(N2C[C@@]3(CCC[C@](C)(Cn4cnc5ccc(C#N)cc54)C3)OC2=O)c(OC)n1 [Example 110]     pIC50  8.00 to 10.00
11  COC(C)(C)c1ccc(N2C[C@@]3(CCC[C@](C)(Cn4cnc5ccc(C#N)cc54)C3)OC2=O)cn1 [Example 55]     pIC50  8.00 to 10.00
12  N#Cc1ccc2ncn(C[C@H]3CCC[C@]4(C3)CN(Cc3cn(-c5ccc(C#N)c(C(F)(F)F)c5)nn3)C(=O)O4)c2c1 [Example 98]     pIC50  8.00 to 10.00
13  CCOc1cc(C)c(N2C[C@@]3(CCC[C@](C)(Cn4cnc5ccc(C#N)cc54)C3)OC2=O)cn1 [Example 118]     pIC50  8.00 to 10.00

###

- Target: UniProtKB Q9HBA0
- Assay text: Ligand-gated assay (Fluo4 calcium, FLIPR; inhibition of agonist-induced activation)
- Experimental parameters: HEK-293-MSR-II cells transduced with BacMam human TRPV4; agonist at EC80
pIC50: −log10 of the molar value.
Endpoint: pIC50

                                   molecule  endpoint    assay_value
0  CC(C)(C)OC(=O)OCC(C)(C)c1cc(N2C[C@@]3(CCC[C@](C)(Cn4cnc5ccc(C#N)cc54)C3)OC2=O)on1 [Example 20]     pIC50  8.00 to 10.00
1  N#Cc1ccc2ncn(C[C@H]3CCC[C@]4(C3)CN(Cc3csc(-c5ccccc5)n3)C(=O)O4)c2c1 [Example 63]     pIC50   7.30 to 8.00
2  CC(C)c1noc(C(C)(C)CN2C[C@@]3(CCC[C@H](Cn4cnc5ccc(C#N)cc54)C3)OC2=O)n1 [Example 76]     pIC50  8.00 to 10.00
3  N#Cc1ccc2ncn(C[C@H]3CCC[C@]4(C3)CN(Cc3cn(-c5ccc(Cl)cc5)nn3)C(=O)O4)c2c1 [Example 89]     pIC50   7.30 to 8.00

###

- Target: human TRPV4 (Homo sapiens)
- Assay text: Ligand-gated assay (Fluo4 calcium, FLIPR; inhibition of agonist-induced activation)
- Experimental parameters: HEK-293-MSR-II cells transduced with BacMam human TRPV4; agonist at EC80
Endpoint: IC50

                                   compound                      target  endpoint   assay_value
0  CCOc1cc(C)c(N2C[C@@]3(CCC[C@](C)(Cn4cnc5ccc(C#N)cc54)C3)OC2=O)nn1 [Example 24]  human TRPV4 (Homo sapiens)      IC50  0.1 to 10 nM
1  CC(C)(C)c1ncc(N2C[C@@]3(CCC[C@H](Cn4cnc5ccc(C#N)cc54)C3)OC2=O)cn1 [Example 116]  human TRPV4 (Homo sapiens)      IC50   10 to 50 nM
2  CC(C)(C)n1cc(N2C[C@@]3(CCC[C@](C)(Cn4cnc5ccc(C#N)cc54)C3)OC2=O)cn1 [Example 43]  human TRPV4 (Homo sapiens)      IC50   10 to 50 nM
3  N#Cc1ccc2ncn(C[C@H]3CCC[C@]4(C3)CN(Cc3cn(C5CCCCC5)nn3)C(=O)O4)c2c1 [Example 97]  human TRPV4 (Homo sapiens)      IC50   10 to 50 nM
4  CCOc1cnc(CN2C[C@@]3(CCC[C@](C)(Cn4cnc5ccc(C#N)cc54)C3)OC2=O)cn1 [Example 155]  human TRPV4 (Homo sapiens)      IC50  0.1 to 10 nM
5  CC(C)(C)c1cc(N2C[C@@]3(CCC[C@](C)(Cn4cnc5ccc(C#N)cc54)C3)OC2=O)on1 [Example 1]  human TRPV4 (Homo sapiens)      IC50   10 to 50 nM
6  N#Cc1ccc2ncn(C[C@H]3CCC[C@]4(C3)CN(Cc3csc5ncccc35)C(=O)O4)c2c1 [Example 151]  human TRPV4 (Homo sapiens)      IC50  50 to 500 nM
7  N#Cc1ccc2ncn(C[C@H]3CCC[C@]4(C3)CN(Cc3cn(-c5cncc(Cl)c5)nn3)C(=O)O4)c2c1 [Example 106]  human TRPV4 (Homo sapiens)      IC50   10 to 50 nM
